Tested on: HEK-293T
Procedure Details: Multiplex assay against HEK293T
Type: toxicity, cell-based
Assay Context: human, 24 h, 10 µM, compound concentration 10 uM, replicate 1
Value Type: Population Hoechst High Intensity Objects (%)
In your response, the unit should come after the numeric value.

Guide cases for Population Hoechst High Intensity Objects (%), answers given:
INSERT INTO results (molecule, experimental_target, result) VALUES
  ('Br.CS(=O)(=O)Nc1c(O)ccc2c1CCCC2C1=NCCN1 (stereo not given)', 'HEK-293T', '6%'),
  ('C[C@H](N)COC(=O)[C@@H](CCCCN)NC(=O)Cc1c(-c2ccc3ccccc3c2)[nH]c2c1ccc1ccccc12', 'HEK-293T', '6%'),
  ('Cc1cnc(-c2cc(N3CCN(C(=O)CCS(C)(=O)=O)CC3)ncc2Cl)c(C)c1', 'HEK-293T', '5%'),
  ('Cl.NCCc1ccc(O)c(O)c1 [DOPAMINE HYDROCHLORIDE]', 'HEK-293T', '5%');

Continue with the next molecule.
*Q* # input molecule: `O=C(CCCc1ccccc1)Nc1nc2ccccc2c(=O)s1` ; wanted: its Population Hoechst High Intensity Objects (%)
*A* 6%

====

Tested on: U2OS
Procedure Details: Multiplex assay against U2OS
Type: toxicity, cell-based
Assay Context: human, 12 h, 1 µM, compound concentration 1 uM, replicate 1
Reported Population Pyknosed Nuclei (%) values for the following molecules.
Enter your answer as a number in %; do not include the unit.

INSERT INTO assay_data (molecule, numeric_value) VALUES
  ('Cc1sc2c(c1C)C(c1ccc(Cl)cc1)=N[C@@H](CC(=O)NCCCCCCCCNC(=O)COc1cccc3c1C(=O)N(C1CCC(=O)NC1=O)C3=O)c1nnc(C)n1-2 (stereo partly specified)', 6),
  ('C[C@H](N)COC(=O)[C@@H](CCCCN)NC(=O)Cc1c(-c2ccc3ccccc3c2)[nH]c2c1ccc1ccccc12', 6),
  ('Cc1cnc(-c2cc(N3CCN(C(=O)CCS(C)(=O)=O)CC3)ncc2Cl)c(C)c1', 8);

*Q* Tell me reported Population Pyknosed Nuclei (%) for `CCCOc1ccc2[nH]cc(C3=CCNCC3)c2n1.Cl` , tested with U2OS.
*A* 9

*Q* Tell me reported Population Pyknosed Nuclei (%) for O=C(NCCN1CCC(n2c(=O)[nH]c3cc(Cl)ccc32)CC1)c1ccc(F)cc1 [HALOPEMIDE] , tested with U2OS.
*A* 10

*Q* Tell me reported Population Pyknosed Nuclei (%) for CC[C@@H](C)Nc1nc(C)nc2c(-c3ccc(OC)nc3C)c(C)nn12 [PEXACERFONT] , tested with U2OS.
*A* 9

====

Test system: Fibroblast
Procedure Details: Multiplex assay against human fibroblast
Type: toxicity, cell-based
Assay Context: 48 h, 1 µM, compound concentration 1 uM, replicate 1
// assign 1.0 if Population Apoptotic (%) falls strictly below 60%, else 0.0 (ties count as 0.0)

Reference set (5 entries):
INSERT INTO results (molecule, assigned_category) VALUES
  ('Cc1sc2c(c1C)C(c1ccc(Cl)cc1)=N[C@@H](CC(=O)NCCCCCCCCNC(=O)COc1cccc3c1C(=O)N(C1CCC(=O)NC1=O)C3=O)c1nnc(C)n1-2 (stereo partly specified)', 0.0),
  ('Cl.NCCc1ccc(O)c(O)c1 [DOPAMINE HYDROCHLORIDE]', 1.0),
  ('Cc1onc(-c2ccccc2Cl)c1C(=O)N(C)c1ccc(Cl)cc1', 0.0),
  ('COc1cccc2c1c(NS(=O)(=O)c1ccc(Cl)s1)nn2Cc1cccc(CNC(=O)C(C)(C)O)c1', 0.0),
  ('CC(C)c1noc(N2CCC(COc3ccc(-c4ccc(S(C)(=O)=O)cc4)nc3)CC2)n1', 0.0);

*Q* Find out if reported Population Apoptotic (%) for `CN(C)C(=O)Cn1cc(-c2ccc(-c3cncc4ccccc34)cc2)cn1` is less than 60%
*A* 0.0

*Q* Find out if reported Population Apoptotic (%) for `CC(C)(C)c1cc(NC(=O)Nc2ccc(-c3cn4c(n3)sc3cc(OCCN5CCOCC5)ccc34)cc2)no1` is less than 60%
*A* 0.0

*Q* Find out if reported Population Apoptotic (%) for `Cc1c(CC(=O)O)c2cccnc2n1Cc1ccc(S(C)(=O)=O)cc1C(F)(F)F` is less than 60%
*A* 0.0

*Q* Find out if reported Population Apoptotic (%) for `CCc1cc2cc(NS(=O)(=O)c3ccc(C#N)cc3)ccc2n(CC)c1=O` is less than 60%
*A* 1.0

*Q* Find out if reported Population Apoptotic (%) for `Cc1cccc(NC(=O)CN2CCC(c3ccccn3)CC2)c1.Cl.Cl` is less than 60%
*A* 0.0

*Q* Find out if reported Population Apoptotic (%) for `NCCc1cn(S(=O)(=O)c2c(Cl)nc3sccn23)c2ccccc12.O=C(O)C(=O)O` is less than 60%
*A* 1.0

*Q* Find out if reported Population Apoptotic (%) for Br.CS(=O)(=O)Nc1c(O)ccc2c1CCCC2C1=NCCN1 (stereo unspecified) is less than 60%
*A* 1.0

*Q* Find out if reported Population Apoptotic (%) for `O=C1[C@H](Cc2ccc(O)cc2)N2C(=O)CCN(C(=O)NCc3ccccc3)[C@H]2CN1Cc1cccc2ccccc12` is less than 60%
*A* 0.0

*Q* Find out if reported Population Apoptotic (%) for `CC(/C=C1\SC(=S)N(CCCC(=O)Nc2ccc(C(=O)O)c(O)c2)C1=O)=C\c1ccccc1` is less than 60%
*A* 0.0

*Q* Find out if reported Population Apoptotic (%) for `Cc1noc(-c2ccc(-c3ccc(CC(=O)O)cc3)cc2)c1NC(=O)O[C@H](C)c1ccccc1Cl` is less than 60%
*A* 1.0

// data source = ChEMBL document CHEMBL5058577
